# P. falciparum blood-stage development (parasite DNA level fluorescence) annotations
System: P. falciparum NF54
Assay: P. falciparum blood stage assay (SYBR Green)
Format: cell-based, Plasmodium falciparum
Conditions: 1.25 uM, 72 h; untreated = 129
Give your answer as a number; write no unit.

Cc1nn(C)c(C)c1CCOc1ccccc1-c1cccc(N2CCNCC2)c1 [Compound 12d] ... 124.2

// below: P. falciparum blood-stage development (parasite DNA level fluorescence) requested for another molecule
Task: Endpoint output: P. falciparum blood-stage development (parasite DNA level fluorescence) of Cc1n[nH]c(C)c1CCOc1cc(F)ccc1-c1ccnc(N2CCNCC2)c1 [Compound 12q] . Value?
Result: 119.1

----------
Target: PvNMT (Plasmodium vivax, UniProt A5K1A2)
Sequence (A5K1A2 entry or part of it): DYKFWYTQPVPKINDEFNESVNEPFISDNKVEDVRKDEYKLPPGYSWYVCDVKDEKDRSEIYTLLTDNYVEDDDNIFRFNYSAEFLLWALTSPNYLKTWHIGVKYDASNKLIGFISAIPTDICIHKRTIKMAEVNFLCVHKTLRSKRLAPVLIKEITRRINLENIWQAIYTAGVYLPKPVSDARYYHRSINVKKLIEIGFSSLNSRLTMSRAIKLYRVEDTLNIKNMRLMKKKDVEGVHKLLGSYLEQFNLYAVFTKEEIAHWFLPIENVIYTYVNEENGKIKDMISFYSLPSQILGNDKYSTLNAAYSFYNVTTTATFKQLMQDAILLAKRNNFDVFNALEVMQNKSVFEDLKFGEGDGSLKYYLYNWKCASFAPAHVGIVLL
Assay: NMT activity assay (CPM detection of free CoA), PvNMT
Details: read-out: PvNMT IC50; mean of two or more determinations
Measured pIC50 values are reported for all entries that follow.
The value called pIC50 is obtained by taking minus log10 of the concentration in mol/L.

Some entries whose results are on file:
Cc1n[nH]c(C)c1CCOc1cc(F)ccc1-c1ccnc(N2CCNCC2)c1 [Compound 12q] ... 7.14
Cc1n[nH]c(C)c1CCOc1cc(F)ccc1-c1cc(N2CCNCC2)ncn1 [Compound 16e] ... 5.29
Cc1nn(C)c(C)c1CCOc1ccc2ccccc2c1-c1ccnc(N2CCNCC2)c1 [Compound 30a] ... 7.05
CN(C)CCOc1cccc(-c2ccc(F)cc2OCCc2cccnc2)c1 [Compound 26f] ... 6.21
Cc1nn(C)c(C)c1CCOc1cc(F)ccc1-c1cc(N2CCNCC2)ncn1 [Compound 16b] ... 6.77

// moving on: another record for pIC50
Task: # input molecule: Cc1n[nH]c(C)c1CCOc1cccnc1-c1ccnc(N2CCNCC2)c1 [Compound 12o] ; wanted: its pIC50
Result: 5.51

----------
Test system: P. vivax hypnozoites
Experiment: P. vivax liver stage assay, hypnozoites
Assay type: cell-based, Plasmodium vivax
Conditions: isolate 2, 20 µM
Protocol: Finally, we evaluated the NMT-binding compounds against non-developing P. vivax hypnozoites. […] (Fig. 6A). […] We, therefore, evaluated the impact of all tested compounds on P. vivax hypnozoites using these two isolates. Plasmodium vivax liver stage assays were performed as described previously. […] The images were processed, analyzed and outlier cells were removed using IMARIS (Bitplane Inc.) image analysis software.
As shown below, each of these molecules has a reported hypnozoites (fold change to DMSO) mean diff value.
Write no unit; give the number alone.

Cc1n[nH]c(C)c1CCOc1cc(F)ccc1-c1ccnc(N2CCNCC2)c1 [Compound 12q] ... 0.931
Cc1nn(C)c(C)c1CCOc1ccccc1-c1cccc(OCCN(C)C)c1 [Compound 26b] ... 0.793
Cc1nn(C)c(C)c1CCOc1ccc2ccccc2c1-c1ccnc(N2CCNCC2)c1 [Compound 30a] ... 1.000
Cc1nn(C)c(C)c1CCOc1cccnc1-c1ccnc(N2CCNCC2)c1 [Compound 12a] ... 0.897
Cc1nn(C)c(C)c1CCOc1ccccc1-c1cccc(N2CCNCC2)c1 [Compound 12d] ... 0.862
c1cncc(CCOc2cccnc2-c2cccc(N3CCNCC3)c2)c1 [Compound 12g] ... 0.966
Fc1ccc(-c2ccnc(N3CCNCC3)c2)c(OCCc2cccnc2)c1 [Compound 12l] ... 0.828
Cc1nn(C)c(C)c1CCOc1cc(F)ccc1-c1cccc(OCCN(C)C)c1 [Compound 26c] ... 0.862

Now consider the entry below.
Task: Returns the measured hypnozoites (fold change to DMSO) mean diff for the input molecule. Input: c1cncc(CCOc2ccc3ccccc3c2-c2ccnc(N3CCNCC3)c2)c1 [Compound 30c]
Result: 0.690
